Lab note: IC50 readings collected with Acetylcholinesterase (Electrophorus electricus, UniProt O42275) for the following molecules.
Sequence (O42275 whole entry): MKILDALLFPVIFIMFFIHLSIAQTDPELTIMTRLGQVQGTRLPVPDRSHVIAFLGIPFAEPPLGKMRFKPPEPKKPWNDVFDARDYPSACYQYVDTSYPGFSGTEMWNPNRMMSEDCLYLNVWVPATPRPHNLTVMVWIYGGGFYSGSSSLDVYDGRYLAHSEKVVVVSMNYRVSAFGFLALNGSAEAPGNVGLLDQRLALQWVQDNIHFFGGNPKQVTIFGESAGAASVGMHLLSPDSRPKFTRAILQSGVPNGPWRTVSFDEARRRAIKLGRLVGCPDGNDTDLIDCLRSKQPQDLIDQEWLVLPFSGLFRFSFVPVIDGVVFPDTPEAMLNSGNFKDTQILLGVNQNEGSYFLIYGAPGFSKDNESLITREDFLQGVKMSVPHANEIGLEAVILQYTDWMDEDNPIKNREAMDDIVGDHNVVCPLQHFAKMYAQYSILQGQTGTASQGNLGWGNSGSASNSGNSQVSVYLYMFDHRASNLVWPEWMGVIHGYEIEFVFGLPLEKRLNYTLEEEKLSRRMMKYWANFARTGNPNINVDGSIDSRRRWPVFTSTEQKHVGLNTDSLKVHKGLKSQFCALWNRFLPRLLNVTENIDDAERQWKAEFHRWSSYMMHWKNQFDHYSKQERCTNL
assayEndpoint: IC50

- O=C1/C(=C/c2ccncc2)Oc2cc(O)ccc21: > 100 µM
- CCN(CC)c1ccc(/C=C2\Oc3cc(O)ccc3C2=O)cc1: > 100 µM
- CCN(CC)C(=O)Oc1ccc2c(c1)O/C(=C\c1ccc(OC)cc1)C2=O: > 100 µM
- CCN(CC)C(=O)Oc1ccc2c(c1)O/C(=C\c1ccc(N(C)C)cc1)C2=O: > 100 µM
- COc1ccc2c(c1)O/C(=C\c1ccncc1)C2=O: > 100 µM
- COc1ccc(/C=C2\Oc3cc(OCCN(C)C)ccc3C2=O)cc1: 12 µM
- COc1ccc(/C=C2\Oc3cc(OCCN4CCCC4)ccc3C2=O)cc1: 1.18 µM
- COc1ccc2c(c1)O/C(=C\c1ccc(OCCCN(C)C)cc1)C2=O: 2.44 µM
- CCN(CC)C(=O)Oc1ccc2c(c1)O/C(=C\c1ccc(OCCN3CCCC3)cc1)C2=O: 0.779 µM
- CCN(CC)C(=O)Oc1ccc2c(c1)O/C(=C\c1ccc(OCCCN(C)C)cc1)C2=O: 3.29 µM
